# reported composite z-score; entries follow
# Assayed target: E3 ubiquitin-protein ligase XIAP (Homo sapiens)
# Experimental protocol: XIAP binders, primary screen, biophysical, small-molecule microarray, fluorescence 635 nm (AID 1181);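 note: score merges 667 nm emission and signal to noise over triplicate slides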
# Condition notes: small-molecule microarray binding, higher = more signal
Quantity name: composite z-score

> print(dat)
                                   compound                            assayed.target      quantity.name  numeric.readout
1  COc1ccc([Si](C)(C)[C@H]2[C@H](CC(=O)N(CCO)Cc3ccccc3)O[C@@]3(C(=O)N(Cc4cccc(N5CCOC5=O)c4)c4ccccc43)[C@@H]2C)cc1  E3 ubiquitin-protein ligase XIAP (Homo sapiens)  composite z-score          -0.0562
2  CCCCCCc1nc(C2CC2)cc2c1[Si](C(C)C)(C(C)C)OC2  E3 ubiquitin-protein ligase XIAP (Homo sapiens)  composite z-score           -0.206
3  C=CC[C@]1(C(=O)NCCN2CCOCC2)N=C(c2ccc(OCCCO)cc2)O[C@H]1c1ccccc1CN=[N+]=[N-]  E3 ubiquitin-protein ligase XIAP (Homo sapiens)  composite z-score           -0.209
4  O=C1N(Cc2ccccc2)c2ccccc2[C@@H]2OC(c3ccc(OCCCO)cc3)=N[C@]12Cc1ccccc1  E3 ubiquitin-protein ligase XIAP (Homo sapiens)  composite z-score          -0.0749
5  COc1cc2c(cc1O)C(C)N(Cc1ccc([N+](=O)[O-])o1)CC2 (configuration not stated)  E3 ubiquitin-protein ligase XIAP (Homo sapiens)  composite z-score           -0.127
6  O=C1O[C@@H](c2ccccc2)[C@@H](c2ccccc2)N2[C@@H](c3ccccc3OCCO)[C@]3(C(=O)Nc4ccc(C#CCCO)cc43)[C@@H](C(=O)N3CCCCCCC3)[C@H]12  E3 ubiquitin-protein ligase XIAP (Homo sapiens)  composite z-score             2.45
7  COCCCNC(=O)[C@]1(CCS(=O)(=O)c2ccccc2)N=C(c2ccc(OCCCO)cc2)O[C@@H]1c1ccccc1CN=[N+]=[N-]  E3 ubiquitin-protein ligase XIAP (Homo sapiens)  composite z-score            0.481

###

Reported composite z-score values are given for each entry in this list.
# Experimental protocol: binders of probe aFGF2 on microarray, primary screen, stem cell growth factor project, biochemical, small-molecule microarray, fluorescence 635/667 (AID 1067);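 note: measures binding of biotinylated aFGF2 protein to printed compounds on slides; z-score merges feature fluorescence and signal-to-noise across triplicate slides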
# Condition notes: higher = more signal

Compound	composite z-score
O=C1C2C=CC(C(O)c3ccccc3)N(Nc3ccccc3F)C2C(=O)N1c1ccccc1 (stereo unspecified)	0.0248
CC(C)C(CO)N1C(=O)[C@@H]2C3C(=O)OCCC/C=C\[C@H]3OC23C=CCN(C(C)(C)C)C(=O)[C@@H]13 (stereo partly specified)	-0.133
CCCCC(=C=CC[C@@H](O)c1ccccc1OCCO)C[C@@H](O)COCc1ccccc1	-0.101
O=C(CS)NCCCCCCNC(=O)[C@H]1C[C@H]2C(=O)N[C@@H](Cc3ccccc3)C(=O)N2[C@H]1c1ccc(O)cc1	-0.132
CCOC(=O)C1=CC[C@@H](c2ccc(OCc3ccccc3)c(OC)c2)N(S(=O)(=O)c2ccc(C)cc2)[C@H]1c1ccc(SC)cc1	0.162
COc1cccc(/C=C/C=O)c1	0.0726
COC(=O)[C@@]1(Cc2ccccc2)[C@@H]2C(=CC(=O)[C@H]2CC(=O)C(=O)N(C)C)CN1C(=O)c1ccccc1	0.305
O=C1OCC=C[C@H]2OC34C=CCN(Cc5ccccc5)C(=O)[C@H]3N(CCCCCCO)C(=O)[C@@H]4[C@@H]12 (stereo partly specified)	-0.191
CCCCCCc1nc(-c2cc(C)c(OC)c(C)c2)c(C)c2c1[Si](C(C)C)(C(C)C)OC2	-0.093
COCCCNC(=O)[C@@]1(Sc2ccc(C)cc2)CC(=O)N(C2CCCCC2)[C@@H]1c1ccc(CO)cc1	0.0019
COCCCNC(=O)[C@@]1(Cc2ccccc2N=[N+]=[N-])COC(c2ccc(OCCCO)cc2)=N1	0.146
COc1ccc([Si](C)(C)[C@H]2[C@H](CCn3cc([C@H](O)c4ccccc4)nn3)O[C@@]3(C(=O)N(Cc4ccc(N5C(=O)c6cccc7cccc5c67)cc4)c4ccccc43)[C@@H]2C)cc1	-0.159
CCCCCCCCCCC(O)C1C=CC2C(=O)N(C)C(=O)C2N1NC(=O)OC(C)(C)C (stereo unspecified)	-0.0272
C=C(C)[C@@H]1CC=C(C(O)C2C=CC3C(=O)N(c4ccccc4)C(=O)C3N2Nc2ccccc2F)CC1 (stereo partly specified)	0.195
COc1ccc(CCN2C(=O)[C@@]3(Cc4ccccc42)c2ccccc2C(=O)N(Cc2ccccc2OC)[C@H]3c2ccc(CO)cc2)cc1	0.0252
CC(C)(C)OC(=O)CC[C@@]1(C(=O)NCc2ccccc2)N=C(c2ccc(OCCCO)cc2)O[C@@H]1c1ccccc1N=[N+]=[N-]	0.246
